- Tested on: bacterial organisms present in patient urine sample
- Experiment Summary: Antibiotic Resistance (ABR) assay utilizing agar-containing medium
- Type: cell-based
- Experimental Conditions: antibiotic 32 μg/mL
# maps each entry to its Blanked (OD600 minus AB-Blend well)
Give only the figure.

# Smiles Input, Target System, Measured Endpoint, Meas Value
measured = [
    ("CO/N=C(\\C(=O)N[C@@H]1C(=O)N2C(C(=O)O)=C(CSc3nc(=O)c(=O)[nH]n3C)CS[C@H]12)c1csc(N)n1", "bacterial organisms present in patient urine sample", "Blanked (OD600 minus AB-Blend well)", 0.0002),
    ("CC1(C)S[C@@H]2[C@H](NC(=O)[C@H](N)c3ccccc3)C(=O)N2[C@H]1C(=O)O", "bacterial organisms present in patient urine sample", "Blanked (OD600 minus AB-Blend well)", 0.4440),
    ("CO[C@@]1(NC(=O)Cc2cccs2)C(=O)N2C(C(=O)O)=C(COC(N)=O)CS[C@@H]21", "bacterial organisms present in patient urine sample", "Blanked (OD600 minus AB-Blend well)", 0.0005),
]

Turning now to a further molecule:
Specify measured Blanked (OD600 minus AB-Blend well) for O=C1CN(/N=C/c2ccc([N+](=O)[O-])o2)C(=O)N1 .
0.0003

====

- Test system: bacterial organisms present in patient urine sample
- Experiment Summary: Antibiotic Resistance (ABR) assay utilizing agar-containing medium
- Format: cell-based
- Experimental Conditions: antibiotic 2 μg/mL
Measured Endpoint: Blanked (OD600 minus AB-Blend well)
Give only the figure.

Example compounds with recorded Blanked (OD600 minus AB-Blend well):
# Compound, Blanked (OD600 minus AB-Blend well)
data = [
    ("O=C(O)c1cn(C2CC2)c2cc(N3CCNCC3)c(F)cc2c1=O [Ciprofloxacin, ciprofloxacin]", 0.0030),
    ("CO/N=C(\\C(=O)N[C@@H]1C(=O)N2C(C(=O)O)=C(CSc3nc(=O)c(=O)[nH]n3C)CS[C@H]12)c1csc(N)n1 [Ceftriaxone, ceftriaxone]", 0.0048),
    ("C[C@H]1COc2c(N3CCN(C)CC3)c(F)cc3c(=O)c(C(=O)O)cn1c23 [Levofloxacin, levofloxacin]", 0.0017),
]

Turning now to a further compound:
Specify measured Blanked (OD600 minus AB-Blend well) for C[C@@H](O)[C@H]1C(=O)N2C(C(=O)O)=C(S[C@@H]3CN[C@H](C(=O)N(C)C)C3)[C@H](C)[C@H]12 [Meropenem, meropenem] .
0.0004

====

- System: bacterial organisms present in patient urine sample
- Experiment Summary: Antibiotic Resistance (ABR) assay utilizing liquid growth medium
- Assay type: cell-based
- Experimental Conditions: antibiotic 2 μg/mL; liquid medium
- Protocol: Urine samples suitable for processing with this assay are collected, transported, and stored using BD Vacutainer tubes or other suitable leak-proof sterile containers. Urine samples may be held at room temperature for 48 hours before test results are compromised. […] Twenty microliters of each antibiotic solution were aliquoted into the pre-determined wells of a 96-well microplate (VIS 96/F-PS, Eppendorf) from the 10× Antibiotic Source Plate to create ABR testing plates for inoculation. […]
# maps each entry to its Mean (OD600)
Give only the figure.

# Molecule, Mean (OD600)
rows = [
    ("C[C@H]1COc2c(N3CCN(C)CC3)c(F)cc3c(=O)c(C(=O)O)cn1c23 [Levofloxacin, levofloxacin]", 0.0436),
    ("CN(C)[C@@H]1C(O)=C(C(N)=O)C(=O)[C@@]2(O)C(O)=C3C(=O)c4c(O)cccc4[C@@](C)(O)[C@H]3C[C@@H]12 [tetracycline]", 0.2084),
    ("CN[C@H](CC(C)C)C(=O)N[C@H]1C(=O)N[C@@H](CC(N)=O)C(=O)N[C@H]2C(=O)N[C@H]3C(=O)N[C@H](C(=O)N[C@H](C(=O)O)c4cc(O)cc(O)c4-c4cc3ccc4O)[C@H](O)c3ccc(c(Cl)c3)Oc3cc2cc(c3O[C@@H]2O[C@H](CO)[C@@H](O)[C@H](O)[C@H]2O[C@H]2C[C@](C)(N)[C@H](O)[C@H](C)O2)Oc2ccc(cc2Cl)[C@H]1O [Vancomycin, vancomycin]", 0.0435),
    ("C[C@@H](O)[C@H]1C(=O)N2C(C(=O)O)=C(S[C@@H]3CN[C@H](C(=O)N(C)C)C3)[C@H](C)[C@H]12 [Meropenem, meropenem]", 0.1928),
    ("Cc1nnc(SCC2=C(C(=O)O)N3C(=O)[C@@H](NC(=O)Cn4cnnn4)[C@H]3SC2)s1 [Cefazolin, cefazolin]", 0.2339),
]

Turning now to a further molecule:
Specify measured Mean (OD600) for CO/N=C(\C(=O)N[C@@H]1C(=O)N2C(C(=O)[O-])=C(C[N+]3(C)CCCC3)CS[C@H]12)c1csc(N)n1 [Cefepime, cefepime] .
0.2427

====

- Test system: bacterial organisms present in patient urine sample
- Experiment Summary: Antibiotic Resistance (ABR) assay utilizing liquid growth medium
- Assay type: cell-based
- Experimental Conditions: antibiotic 1 μg/mL; liquid medium
Label yes (1) for high-side Mean (OD600) (at or above 0.2) and no (0) for low-side Mean (OD600) (below it).

Example results:
# Compound, Classification
measured = [
    ("CO/N=C(\\C(=O)N[C@@H]1C(=O)N2C(C(=O)[O-])=C(C[N+]3(C)CCCC3)CS[C@H]12)c1csc(N)n1 [Cefepime, cefepime]", "yes (1)"),
    ("CO/N=C(\\C(=O)N[C@@H]1C(=O)N2C(C(=O)O)=C(CSc3nc(=O)c(=O)[nH]n3C)CS[C@H]12)c1csc(N)n1", "yes (1)"),
    ("O=C(O)c1cn(C2CC2)c2cc(N3CCNCC3)c(F)cc2c1=O", "no (0)"),
    ("C[C@@H](O)[C@H]1C(=O)N2C(C(=O)O)=C(S[C@@H]3CN[C@H](C(=O)N(C)C)C3)[C@H](C)[C@H]12", "yes (1)"),
    ("CN[C@H](CC(C)C)C(=O)N[C@H]1C(=O)N[C@@H](CC(N)=O)C(=O)N[C@H]2C(=O)N[C@H]3C(=O)N[C@H](C(=O)N[C@H](C(=O)O)c4cc(O)cc(O)c4-c4cc3ccc4O)[C@H](O)c3ccc(c(Cl)c3)Oc3cc2cc(c3O[C@@H]2O[C@H](CO)[C@@H](O)[C@H](O)[C@H]2O[C@H]2C[C@](C)(N)[C@H](O)[C@H](C)O2)Oc2ccc(cc2Cl)[C@H]1O", "no (0)"),
]

Now turn to the next compound.
Tell me whether Mean (OD600) is at least 0.2 here: C[C@H]1COc2c(N3CCN(C)CC3)c(F)cc3c(=O)c(C(=O)O)cn1c23
no (0)

====

# maps each entry to its Blanked (OD600 minus Na-Azide well)
- Tested on: bacterial organisms present in patient urine sample
- Experiment Summary: Antibiotic Resistance (ABR) assay utilizing liquid growth medium
- Format: cell-based
- Experimental Conditions: antibiotic 16 μg/mL; liquid medium
Give only the figure.

Example compounds with recorded Blanked (OD600 minus Na-Azide well):
# Compound, Measured Endpoint, Meas Value
data = [
    ("Cc1nnc(SCC2=C(C(=O)O)N3C(=O)[C@@H](NC(=O)Cn4cnnn4)[C@H]3SC2)s1", "Blanked (OD600 minus Na-Azide well)", 0.1011),
    ("CO/N=C(\\C(=O)N[C@@H]1C(=O)N2C(C(=O)[O-])=C(C[N+]3(C)CCCC3)CS[C@H]12)c1csc(N)n1 [Cefepime, cefepime]", "Blanked (OD600 minus Na-Azide well)", 0.1866),
]

Specify measured Blanked (OD600 minus Na-Azide well) for CN(C)[C@@H]1C(O)=C(C(N)=O)C(=O)[C@@]2(O)C(O)=C3C(=O)c4c(O)cccc4[C@@](C)(O)[C@H]3C[C@@H]12 .
0.0082

Specify measured Blanked (OD600 minus Na-Azide well) for CC1(C)S[C@@H]2[C@H](NC(=O)[C@H](N)c3ccccc3)C(=O)N2[C@H]1C(=O)O .
−0.0038

Specify measured Blanked (OD600 minus Na-Azide well) for CC(C)(O/N=C(\C(=O)N[C@@H]1C(=O)N2C(C(=O)[O-])=C(C[n+]3ccccc3)CS[C@H]12)c1csc(N)n1)C(=O)O .
0.2016

Specify measured Blanked (OD600 minus Na-Azide well) for CN[C@H](CC(C)C)C(=O)N[C@H]1C(=O)N[C@@H](CC(N)=O)C(=O)N[C@H]2C(=O)N[C@H]3C(=O)N[C@H](C(=O)N[C@H](C(=O)O)c4cc(O)cc(O)c4-c4cc3ccc4O)[C@H](O)c3ccc(c(Cl)c3)Oc3cc2cc(c3O[C@@H]2O[C@H](CO)[C@@H](O)[C@H](O)[C@H]2O[C@H]2C[C@](C)(N)[C@H](O)[C@H](C)O2)Oc2ccc(cc2Cl)[C@H]1O .
−0.0026

====

# maps each entry to its Mean (OD600)
- Test system: bacterial organisms present in patient urine sample
- Experiment Summary: Antibiotic Resistance (ABR) assay utilizing agar-containing medium
- Assay type: cell-based
- Experimental Conditions: antibiotic 32 μg/mL
Give only the figure.

Example molecules with recorded Mean (OD600):
# Smiles Input, Target System, Mean (OD600)
measured = [
    ("CO/N=C(\\C(=O)N[C@@H]1C(=O)N2C(C(=O)O)=C(CSc3nc(=O)c(=O)[nH]n3C)CS[C@H]12)c1csc(N)n1", "bacterial organisms present in patient urine sample", 0.0386),
    ("O=C1CN(/N=C/c2ccc([N+](=O)[O-])o2)C(=O)N1", "bacterial organisms present in patient urine sample", 0.0387),
]

Specify measured Mean (OD600) for CO[C@@]1(NC(=O)Cc2cccs2)C(=O)N2C(C(=O)O)=C(COC(N)=O)CS[C@@H]21 .
0.0389

Specify measured Mean (OD600) for CC1(C)S[C@@H]2[C@H](NC(=O)[C@H](N)c3ccccc3)C(=O)N2[C@H]1C(=O)O .
0.4824
